// provenance: patent US20220002293A1

biological target: ABL1 (Homo sapiens, UniProt P00519); test: Kinase inhibition, ABL1; type: biochemical; settings: 10 μM ATP; read-out: Compound IC50 (M), ABL1
Sequence (P00519 whole entry): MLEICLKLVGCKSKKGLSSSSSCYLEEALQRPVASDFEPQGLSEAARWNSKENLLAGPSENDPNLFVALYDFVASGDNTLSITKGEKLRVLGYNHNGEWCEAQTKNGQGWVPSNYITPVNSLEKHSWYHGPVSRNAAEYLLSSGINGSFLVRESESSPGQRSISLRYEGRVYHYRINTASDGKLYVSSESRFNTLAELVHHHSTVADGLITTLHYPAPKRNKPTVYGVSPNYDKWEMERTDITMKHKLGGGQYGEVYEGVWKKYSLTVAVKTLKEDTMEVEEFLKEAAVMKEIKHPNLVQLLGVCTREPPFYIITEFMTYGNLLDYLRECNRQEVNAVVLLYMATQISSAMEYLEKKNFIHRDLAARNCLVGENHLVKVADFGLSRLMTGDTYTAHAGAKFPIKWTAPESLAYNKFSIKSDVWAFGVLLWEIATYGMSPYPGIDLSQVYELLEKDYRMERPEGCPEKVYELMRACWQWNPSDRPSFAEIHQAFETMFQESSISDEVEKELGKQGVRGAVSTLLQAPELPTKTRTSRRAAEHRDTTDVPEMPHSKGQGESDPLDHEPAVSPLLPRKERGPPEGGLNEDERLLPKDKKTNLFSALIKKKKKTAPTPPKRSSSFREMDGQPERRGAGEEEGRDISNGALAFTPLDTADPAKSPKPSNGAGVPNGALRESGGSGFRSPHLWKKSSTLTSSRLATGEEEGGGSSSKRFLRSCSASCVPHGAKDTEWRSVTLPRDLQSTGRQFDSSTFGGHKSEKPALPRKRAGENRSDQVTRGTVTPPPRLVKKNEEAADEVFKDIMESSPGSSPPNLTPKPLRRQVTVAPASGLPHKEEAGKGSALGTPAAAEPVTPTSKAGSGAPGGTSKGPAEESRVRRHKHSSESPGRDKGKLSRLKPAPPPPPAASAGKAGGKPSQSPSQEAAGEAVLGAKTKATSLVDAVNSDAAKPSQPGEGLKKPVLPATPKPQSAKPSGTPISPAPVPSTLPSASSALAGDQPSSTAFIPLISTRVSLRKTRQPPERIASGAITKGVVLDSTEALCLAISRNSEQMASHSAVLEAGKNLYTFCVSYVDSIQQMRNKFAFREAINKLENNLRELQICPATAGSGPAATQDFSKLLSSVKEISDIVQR
metric: IC50 (M)

>>> df
                                   molecule  metric  reported_value
0  N#Cc1cc2cnc(Nc3ccc(N4CCNCC4)cc3)nc2n(C2CCCC2)c1=O [ON 1232580]    IC50        2.01e-08

---

Target: ARK5/NUAK1 (Homo sapiens)
Sequence (O60285 1-661): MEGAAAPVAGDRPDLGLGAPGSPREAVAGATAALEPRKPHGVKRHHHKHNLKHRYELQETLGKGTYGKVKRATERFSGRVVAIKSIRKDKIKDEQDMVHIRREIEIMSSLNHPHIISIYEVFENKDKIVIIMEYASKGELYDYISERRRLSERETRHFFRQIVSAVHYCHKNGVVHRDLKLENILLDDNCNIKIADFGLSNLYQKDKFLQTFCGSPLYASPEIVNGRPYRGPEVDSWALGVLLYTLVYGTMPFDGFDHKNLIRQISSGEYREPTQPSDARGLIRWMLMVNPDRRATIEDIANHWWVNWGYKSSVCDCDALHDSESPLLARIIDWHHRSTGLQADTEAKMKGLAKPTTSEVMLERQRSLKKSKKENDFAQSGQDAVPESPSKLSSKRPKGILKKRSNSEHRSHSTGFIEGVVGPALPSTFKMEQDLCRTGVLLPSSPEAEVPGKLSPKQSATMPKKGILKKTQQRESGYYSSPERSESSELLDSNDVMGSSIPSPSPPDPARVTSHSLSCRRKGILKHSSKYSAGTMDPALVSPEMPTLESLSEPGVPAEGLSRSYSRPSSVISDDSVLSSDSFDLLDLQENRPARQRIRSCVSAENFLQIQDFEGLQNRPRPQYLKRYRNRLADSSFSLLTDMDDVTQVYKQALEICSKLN
Test: Kinase inhibition, ARK5/NUAK1
Type: biochemical
Conditions: 10 μM ATP; values <1 nM estimated from best curve fitting; read-out: Compound IC50 (M), ARK5/NUAK1
metric: IC50

                                   compound  reported_value
0  CC(=O)c1c(C)c2cnc(Nc3ccc(N4CCNCC4)cn3)nc2n(C2CCCC2)c1=O [Palbociclib, palbociclib, reference compound]      1.91e-06 M
1  N#Cc1cc2cnc(Nc3ccc(N4CCNCC4)cc3)nc2n(C2CCCC2)c1=O [ON 1232580]      2.28e-09 M

---

molecular target: CDK9/cyclin K (Homo sapiens); experiment: Kinase inhibition, CDK9/cyclin K; assay type: biochemical; conditions: 10 μM ATP; read-out: Compound IC50 (M), CDK9/cyclin K
metric: IC50 (M)

>>> print(df.to_string())
                               smiles_entry                  assay_system  unit_name  reported_value
0  N#Cc1cc2cnc(Nc3ccc(N4CCNCC4)cc3)nc2n(C2CCCC2)c1=O  CDK9/cyclin K (Homo sapiens)          M        8.06e-09

---

target: CDK4/cyclin D3 (Homo sapiens, UniProt P11802); test: Kinase inhibition, CDK4/cyclin D3; type: biochemical; settings: 10 μM ATP; read-out: Compound IC50 (M), CDK4/cyclin D3
metric: IC50 (M)

In [3]: df
Out[3]:
                               smiles_entry                              assay_system  unit_name  reported_value
0  N#Cc1cc2cnc(Nc3ccc(N4CCNCC4)cc3)nc2n(C2CCCC2)c1=O  CDK4/cyclin D3 (Homo sapiens, UniProt P11802)          M        2.77e-09

---

biological target: UniProtKB P06241; assay: Kinase inhibition, FYN; type: biochemical; conditions: 10 μM ATP; read-out: Compound IC50 (M), FYN
Sequence (P06241 whole entry): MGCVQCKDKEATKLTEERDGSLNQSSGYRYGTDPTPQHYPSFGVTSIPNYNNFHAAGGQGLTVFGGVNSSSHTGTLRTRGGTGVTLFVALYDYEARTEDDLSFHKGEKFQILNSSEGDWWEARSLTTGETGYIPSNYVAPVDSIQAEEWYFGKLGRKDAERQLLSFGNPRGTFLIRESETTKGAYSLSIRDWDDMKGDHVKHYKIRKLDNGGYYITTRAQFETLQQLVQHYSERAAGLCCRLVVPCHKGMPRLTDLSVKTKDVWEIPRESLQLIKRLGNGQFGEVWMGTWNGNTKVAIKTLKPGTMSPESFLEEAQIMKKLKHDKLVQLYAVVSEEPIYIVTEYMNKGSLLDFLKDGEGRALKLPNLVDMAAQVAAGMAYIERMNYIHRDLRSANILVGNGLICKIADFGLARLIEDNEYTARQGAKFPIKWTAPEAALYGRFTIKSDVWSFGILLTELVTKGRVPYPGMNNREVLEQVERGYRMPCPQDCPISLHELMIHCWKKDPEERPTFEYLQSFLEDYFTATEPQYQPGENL
metric: IC50 (M)

>>> df
                               smiles_entry  metric  reported_value
0  N#Cc1cc2cnc(Nc3ccc(N4CCNCC4)cc3)nc2n(C2CCCC2)c1=O    IC50        3.29e-08

---

target: CDK6/cyclin D1 (Homo sapiens, UniProt Q00534); assay: Kinase inhibition, CDK6/cyclin D1; format: biochemical; conditions: 10 μM ATP; values <1 nM estimated from best curve fitting; read-out: Compound IC50 (M), CDK6/cyclin D1
Sequence (Q00534 whole entry): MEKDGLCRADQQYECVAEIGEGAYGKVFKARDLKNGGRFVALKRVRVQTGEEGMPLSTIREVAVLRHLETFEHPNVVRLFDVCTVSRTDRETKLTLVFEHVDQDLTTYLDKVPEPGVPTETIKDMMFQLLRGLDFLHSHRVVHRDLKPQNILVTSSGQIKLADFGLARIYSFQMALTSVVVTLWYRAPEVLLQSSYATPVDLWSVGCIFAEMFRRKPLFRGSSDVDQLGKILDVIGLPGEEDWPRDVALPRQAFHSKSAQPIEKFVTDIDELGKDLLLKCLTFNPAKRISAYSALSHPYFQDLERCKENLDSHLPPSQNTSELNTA
Sequence (P24385 whole entry partner): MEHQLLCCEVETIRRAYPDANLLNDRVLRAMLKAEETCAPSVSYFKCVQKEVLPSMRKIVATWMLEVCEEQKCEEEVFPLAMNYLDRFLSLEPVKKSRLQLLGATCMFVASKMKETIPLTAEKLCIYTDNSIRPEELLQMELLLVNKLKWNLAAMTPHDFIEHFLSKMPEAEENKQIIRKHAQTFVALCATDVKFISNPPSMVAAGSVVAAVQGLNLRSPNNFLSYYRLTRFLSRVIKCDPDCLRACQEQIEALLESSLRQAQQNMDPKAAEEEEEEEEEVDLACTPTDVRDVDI
metric: IC50

                               smiles_entry  reported_value
0  N#Cc1cc2cnc(Nc3ccc(N4CCNCC4)cc3)nc2n(C2CCCC2)c1=O       < 1e-09 M

---

tested on: K-562 (human chronic myelogenous leukemia); assay: Cytotoxicity assay (CellTiter-Glo), K-562; assay type: cell-based; conditions: Homo sapiens, K562; K-562, 72 h, CellTiter-Glo; read-out: Absolute IC50
metric: IC50 (nM)

In [3]: df
Out[3]:
                               smiles_entry  reported_value
0  N#Cc1cc2cnc(Nc3ccc(N4CCNCC4)cc3)nc2n(C2CCCC2)c1=O            1190

---

system: GRANTA-519 (human B Cell lymphoma); assay: Cytotoxicity assay (CellTiter-Glo), GRANTA-519; conditions: Homo sapiens, Granta-519, 72 h, read-out: Absolute IC50
metric: IC50

>>> df
                               smiles_entry  reported_value
0  N#Cc1cc2cnc(Nc3ccc(N4CCNCC4)cc3)nc2n(C2CCCC2)c1=O          0.4 µM

---

target: PDGFRb (Homo sapiens, UniProt P09619); test: Kinase inhibition, PDGFRb; assay type: biochemical; conditions: 10 μM ATP; read-out: Compound IC50 (M), PDGFRb
Sequence (P09619 33-1106): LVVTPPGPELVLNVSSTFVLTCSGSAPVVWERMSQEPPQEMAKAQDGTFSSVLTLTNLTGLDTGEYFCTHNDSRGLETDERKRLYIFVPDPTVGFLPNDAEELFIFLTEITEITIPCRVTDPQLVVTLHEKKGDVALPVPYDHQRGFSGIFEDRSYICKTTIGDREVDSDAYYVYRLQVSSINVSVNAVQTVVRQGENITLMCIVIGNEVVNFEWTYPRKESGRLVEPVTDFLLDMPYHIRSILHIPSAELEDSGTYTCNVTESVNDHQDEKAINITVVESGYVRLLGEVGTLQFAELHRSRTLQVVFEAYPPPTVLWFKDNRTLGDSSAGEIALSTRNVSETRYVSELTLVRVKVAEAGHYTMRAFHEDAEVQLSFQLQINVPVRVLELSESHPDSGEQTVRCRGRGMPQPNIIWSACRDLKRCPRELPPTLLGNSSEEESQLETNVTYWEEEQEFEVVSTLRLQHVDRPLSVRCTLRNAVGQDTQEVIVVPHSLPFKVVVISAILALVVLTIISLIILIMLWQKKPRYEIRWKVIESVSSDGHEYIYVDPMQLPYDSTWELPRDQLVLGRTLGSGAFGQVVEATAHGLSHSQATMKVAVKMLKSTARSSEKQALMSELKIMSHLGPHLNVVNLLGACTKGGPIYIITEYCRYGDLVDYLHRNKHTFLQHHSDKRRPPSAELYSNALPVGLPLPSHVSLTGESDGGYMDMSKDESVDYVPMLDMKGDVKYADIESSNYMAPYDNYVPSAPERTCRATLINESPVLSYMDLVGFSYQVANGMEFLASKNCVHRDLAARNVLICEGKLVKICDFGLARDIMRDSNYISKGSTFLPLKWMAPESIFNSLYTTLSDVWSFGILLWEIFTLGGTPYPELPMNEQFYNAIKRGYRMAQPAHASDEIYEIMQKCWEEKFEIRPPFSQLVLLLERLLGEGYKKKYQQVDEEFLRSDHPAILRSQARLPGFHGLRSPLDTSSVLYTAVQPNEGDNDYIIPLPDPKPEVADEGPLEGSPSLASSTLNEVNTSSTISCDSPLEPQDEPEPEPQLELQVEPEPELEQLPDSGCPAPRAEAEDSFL
metric: IC50 (M)

>>> print(df.to_string())
                               smiles_entry  metric  unit_name  reported_value
0  N#Cc1cc2cnc(Nc3ccc(N4CCNCC4)cc3)nc2n(C2CCCC2)c1=O    IC50          M        6.12e-09

---

target: FLT3 (Homo sapiens, UniProt P36888); test: Kinase inhibition, FLT3; type: biochemical; settings: 10 μM ATP; values <1 nM estimated from best curve fitting; read-out: Compound IC50 (M), FLT3
metric: IC50 (M)

                               smiles_entry  unit_name  reported_value
0  N#Cc1cc2cnc(Nc3ccc(N4CCNCC4)cc3)nc2n(C2CCCC2)c1=O          M        4.25e-09

---

Listed compounds paired with reported IC50
target: FLT4/VEGFR3 (Homo sapiens); experiment: Kinase inhibition, FLT4/VEGFR3; format: biochemical; settings: 10 μM ATP; read-out: Compound IC50 (M), FLT4/VEGFR3
Sequence (P35916 25-1363): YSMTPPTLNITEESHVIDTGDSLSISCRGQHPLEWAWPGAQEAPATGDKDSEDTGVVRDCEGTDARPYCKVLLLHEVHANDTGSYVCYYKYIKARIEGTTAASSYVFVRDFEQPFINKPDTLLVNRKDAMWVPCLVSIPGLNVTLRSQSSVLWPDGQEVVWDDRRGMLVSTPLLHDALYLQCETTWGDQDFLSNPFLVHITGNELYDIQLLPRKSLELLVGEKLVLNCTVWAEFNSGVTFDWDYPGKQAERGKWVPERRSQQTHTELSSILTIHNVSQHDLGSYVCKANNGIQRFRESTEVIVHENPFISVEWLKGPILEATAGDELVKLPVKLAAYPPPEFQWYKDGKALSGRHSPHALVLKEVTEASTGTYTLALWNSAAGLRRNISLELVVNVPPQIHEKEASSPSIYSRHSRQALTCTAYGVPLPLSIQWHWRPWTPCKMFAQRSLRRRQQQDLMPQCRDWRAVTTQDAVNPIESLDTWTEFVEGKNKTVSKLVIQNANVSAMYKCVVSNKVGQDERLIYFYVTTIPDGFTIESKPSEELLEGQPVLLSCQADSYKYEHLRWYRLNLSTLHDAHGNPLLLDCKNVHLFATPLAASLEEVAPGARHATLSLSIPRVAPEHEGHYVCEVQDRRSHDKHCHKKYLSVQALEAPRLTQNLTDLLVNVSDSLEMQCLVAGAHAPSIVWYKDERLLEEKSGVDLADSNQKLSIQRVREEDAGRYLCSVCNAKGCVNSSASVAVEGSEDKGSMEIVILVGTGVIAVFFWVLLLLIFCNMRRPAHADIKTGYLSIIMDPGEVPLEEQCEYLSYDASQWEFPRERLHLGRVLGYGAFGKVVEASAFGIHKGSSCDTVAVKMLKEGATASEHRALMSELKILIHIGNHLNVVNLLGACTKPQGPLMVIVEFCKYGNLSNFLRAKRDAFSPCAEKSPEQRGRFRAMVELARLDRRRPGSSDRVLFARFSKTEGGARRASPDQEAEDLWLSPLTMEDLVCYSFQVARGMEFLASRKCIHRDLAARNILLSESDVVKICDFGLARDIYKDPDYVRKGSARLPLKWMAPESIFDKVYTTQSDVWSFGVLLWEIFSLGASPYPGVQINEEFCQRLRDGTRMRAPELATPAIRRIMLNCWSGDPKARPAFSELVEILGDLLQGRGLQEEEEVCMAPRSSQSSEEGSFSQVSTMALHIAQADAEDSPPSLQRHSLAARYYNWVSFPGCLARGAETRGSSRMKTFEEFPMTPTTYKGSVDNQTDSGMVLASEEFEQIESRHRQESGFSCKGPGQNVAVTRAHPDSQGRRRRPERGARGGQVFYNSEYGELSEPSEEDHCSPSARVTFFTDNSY
metric: IC50 (M)

>>> df
                                   compound  reported_value
0  N#Cc1cc2cnc(Nc3ccc(N4CCNCC4)cc3)nc2n(C2CCCC2)c1=O [ON 1232580]        6.97e-09
1  CC(=O)c1c(C)c2cnc(Nc3ccc(N4CCNCC4)cn3)nc2n(C2CCCC2)c1=O [Palbociclib, palbociclib, reference compound]        1.72e-05
